Assay notes: Stability investigation of crystal forms A, B, C, D and the amorphous form of the compound of formula (1) (related substances by HPLC, moisture, XRD, DSC)
Type: physicochemical
Conditions used: Avoid light for 18 days
Measured DSC values are reported for all entries that follow.
Numbers only here, please. The scale is °C.

Previously resolved entries follow.
INSERT INTO results (compound, readout_number) VALUES
  ('C[C@H]1CCN1c1nc(N2C[C@@H]3[C@@H](CC(=O)O)[C@@H]3C2)c2c(n1)C(F)(F)CC2 [Crystal form B]', 169.15),
  ('C[C@H]1CCN1c1nc(N2C[C@@H]3[C@@H](CC(=O)O)[C@@H]3C2)c2c(n1)C(F)(F)CC2 [Crystal form A]', 170.20),
  ('C[C@H]1CCN1c1nc(N2C[C@@H]3[C@@H](CC(=O)O)[C@@H]3C2)c2c(n1)C(F)(F)CC2 [Crystal form C]', 172.42);

Now consider the entry below.
## Task For C[C@H]1CCN1c1nc(N2C[C@@H]3[C@@H](CC(=O)O)[C@@H]3C2)c2c(n1)C(F)(F)CC2 [Crystal form D] , what is its reported DSC?
## Result 167.49

###

Assay notes: Stability investigation of crystal forms A, B, C, D and the amorphous form of the compound of formula (1) (related substances by HPLC, moisture, XRD, DSC)
Type: physicochemical
Conditions used: 25° C., RH 92.5%, opened, 10 days
From the text: […] Determination of related substances: determined according to 0512 HPLC in General Principle (Volume IV) of Chinese Pharmacopoeia (2015 Version). Moisture determination: determined according to 2 Coulometric Titration in the First Method (Karl Fischer titration) of 0832 Moisture Determination Method in General Principle (Volume IV) of Chinese Pharmacopoeia (2015 Version). […]
Metric: Total related % (%)
Numbers only here, please. The scale is %.

INSERT INTO results (molecule, unit_symbol, readout_number) VALUES
  ('C[C@H]1CCN1c1nc(N2C[C@@H]3[C@@H](CC(=O)O)[C@@H]3C2)c2c(n1)C(F)(F)CC2 [Amorphous form]', '%', 0.38),
  ('C[C@H]1CCN1c1nc(N2C[C@@H]3[C@@H](CC(=O)O)[C@@H]3C2)c2c(n1)C(F)(F)CC2 [Crystal form A]', '%', 0.24),
  ('C[C@H]1CCN1c1nc(N2C[C@@H]3[C@@H](CC(=O)O)[C@@H]3C2)c2c(n1)C(F)(F)CC2 [Crystal form B]', '%', 0.10),
  ('C[C@H]1CCN1c1nc(N2C[C@@H]3[C@@H](CC(=O)O)[C@@H]3C2)c2c(n1)C(F)(F)CC2 [Crystal form D]', '%', 0.38);

## Task For C[C@H]1CCN1c1nc(N2C[C@@H]3[C@@H](CC(=O)O)[C@@H]3C2)c2c(n1)C(F)(F)CC2 [Crystal form C] , what is its reported Total related %?
## Result 1.07

###

Assay notes: Stability investigation of crystal forms A, B, C, D and the amorphous form of the compound of formula (1) (related substances by HPLC, moisture, XRD, DSC)
Format: physicochemical
Conditions used: 105° C., opened, 5 days
Metric: Trait

INSERT INTO results (molecule, result) VALUES
  ('C[C@H]1CCN1c1nc(N2C[C@@H]3[C@@H](CC(=O)O)[C@@H]3C2)c2c(n1)C(F)(F)CC2 [Crystal form A]', 'Off-white power'),
  ('C[C@H]1CCN1c1nc(N2C[C@@H]3[C@@H](CC(=O)O)[C@@H]3C2)c2c(n1)C(F)(F)CC2 [Crystal form D]', 'Off-white power'),
  ('C[C@H]1CCN1c1nc(N2C[C@@H]3[C@@H](CC(=O)O)[C@@H]3C2)c2c(n1)C(F)(F)CC2 [Crystal form C]', 'Off-white power');
